- STUDY_TARGET: FL-Cyp33 (human, UniProt Q9UNP9 1-301)
- Sequence (Q9UNP9 whole entry): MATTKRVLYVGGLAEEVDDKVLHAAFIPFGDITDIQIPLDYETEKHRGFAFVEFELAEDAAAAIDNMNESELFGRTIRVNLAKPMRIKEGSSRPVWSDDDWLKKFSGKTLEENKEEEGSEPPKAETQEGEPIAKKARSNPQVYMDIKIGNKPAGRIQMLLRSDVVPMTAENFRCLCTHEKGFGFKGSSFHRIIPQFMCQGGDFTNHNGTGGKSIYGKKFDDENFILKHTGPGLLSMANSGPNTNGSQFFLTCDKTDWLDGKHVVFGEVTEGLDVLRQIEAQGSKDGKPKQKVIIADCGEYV
- METHOD_SUMMARY: EMSA; EMSA: SELEX buffer (composition in S2 Table, not in material; physiological salt is 135 mM KCl, 15 mM NaCl) + 10% glycerol, 5 nM RNA, 0.5X TBE 8% PAGE at room temperature; NMR: SELEX buffer + 10% D2O, 25 C; pH not given
- CONDITIONS: protein: recombinant; 6xHis-thrombin construct for NMR; label: 5'-32P (EMSA); hairpin (predicted)
EXPERIMENTAL_ENDPOINT: pKd
Give bare numbers, as −log10 of the molar value.

What measured pKd goes with UGGUAGACCAGUGAUAAUUAACCUGAUGCGUGGAGGAUAUCGAGUUGUCC (structured_RNA) [SO-1] ?
5.18
